Test system: HCV 1b genotype replicon
assayText: HCV genotype-1b replicon assay (qRT-PCR or luciferase)
Type: cell-based
protocolConditions: Hepatitis C virus, read-out: Genotype-1b replicon EC50 Range
pEC50: −log10 of the molar value.
propertyName: pEC50

Task item: Fill in: pEC50 of COC(=O)N[C@H](C(=O)N1CCC[C@H]1C(=O)Nc1ncc(-c2ccc3cc(-c4cnc([C@@H]5CCCN5C(=O)[C@@H](NC(=O)OC)C(C)C)[nH]4)ccc3c2)cn1)C(C)C [Compound 348] is ___
Reply: 8.00 to 9.00
